Data origin, for the record: patent US20150175584A1

# tested.on: PDE1B (Homo sapiens, UniProt Q01064)
# Sequence (Q01064 whole entry): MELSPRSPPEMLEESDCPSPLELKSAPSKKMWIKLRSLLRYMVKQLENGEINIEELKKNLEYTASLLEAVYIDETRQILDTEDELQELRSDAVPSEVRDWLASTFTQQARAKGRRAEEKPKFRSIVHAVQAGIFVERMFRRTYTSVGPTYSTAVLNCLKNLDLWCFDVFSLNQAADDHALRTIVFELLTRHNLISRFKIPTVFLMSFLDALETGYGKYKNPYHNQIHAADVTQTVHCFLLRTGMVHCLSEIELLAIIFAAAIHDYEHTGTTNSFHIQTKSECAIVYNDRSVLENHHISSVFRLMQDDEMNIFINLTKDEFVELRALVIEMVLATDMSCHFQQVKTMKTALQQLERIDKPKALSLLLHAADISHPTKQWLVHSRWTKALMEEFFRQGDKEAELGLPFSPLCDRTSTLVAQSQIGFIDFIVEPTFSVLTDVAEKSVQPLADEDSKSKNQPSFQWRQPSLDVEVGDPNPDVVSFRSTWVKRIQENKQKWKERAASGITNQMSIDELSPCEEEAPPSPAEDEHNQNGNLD
Friendly reminder: IC50 below 600 nM is y, at or above is n.

Please determine if `COc1ccc2c(N(CC3CC3)[C@@H]3CCOC3)ncnc2c1OC` is below 600 nM in terms of IC50.
n

Threshold test, IC50 < 600 nM: COc1ccc2c(N(C)C3CCOC3C)ncnc2c1OC (single isomer, unassigned) [22 Stereoisomer 4]
n

Strictly below 600 nM: is that where IC50 of COc1ccc2c(NC3(C)CCOC3)ncnc2c1OC (single isomer, unassigned) [6 Stereoisomer 1] sits?
y

Consider COc1ccc2c(NC3CCOC3)ncnc2c1OC (single isomer, unassigned) [1 Stereoisomer 1] . Does its IC50 lie strictly below 600 nM?
y

Determine if COc1ccc2c(N(C)[C@@H]3CCOC3)ncnc2c1OC (single isomer, unassigned) [4 Stereoisomer 1] shows IC50 strictly lower than 600 nM.
y

Is the reported IC50 for COc1ccc2c(NC3(C)CCOC3C)ncnc2c1OC (mixture of isomers) [Compound 5] strictly below 600 nM?
y

Problem: For the compound COc1ccc2c(N(C)C3CCOC3C)ncnc2c1OC (single isomer, unassigned) [22 Stereoisomer 1] , is IC50 under 600 nM?
y

###

# PDE1B (Homo sapiens): log10(IC50) values follow
For clarity, the numbers are log10 values of IC50 expressed in nM.

Reported log10(IC50) for COc1ccc2c(N(C)C3CCOC3)ncnc2c1OC (centres unmarked) [Compound 4] was 1.92

So for COc1ccc2c(NC3(C)CCOC3C)ncnc2c1OC (single isomer, unassigned) [5 Stereoisomer 2] , the logged log10(IC50) turned out to be 1.94

# log10(IC50) of COc1ccc2c(NC3CCOC3C)ncnc2c1OC (single isomer, unassigned) [3 Stereoisomer 1] = 3.08

In plain terms, COc1ccc2c(N(C)C3CCOC3C)ncnc2c1OC (single isomer, unassigned) [22 Stereoisomer 3] has a documented log10(IC50) of 2.63

So for COc1ccc2c(NC3(C)CCOC3C)ncnc2c1OC (single isomer, unassigned) [5 Stereoisomer 3] , the logged log10(IC50) turned out to be 0.78

// recorded log10(IC50) for COc1ccc2c(N(C)C3(C)CCOC3C)ncnc2c1OC (single isomer, unassigned) [20 Stereoisomer 1] : 0.70

Documented log10(IC50) of COc1ccc2c(NC3CCOC3(C)C)ncnc2c1OC (single isomer, unassigned) [21 Stereoisomer 1] : 2.89

Recorded result, COc1ccc2c(NC3CCOC3C)ncnc2c1OC (single isomer, unassigned) [3 Stereoisomer 2] , log10(IC50): 1.97

###

I'd be grateful if you could share measured pIC50 for these entries.
FYI, pIC50 means -log10 of a concentration in mol per litre.

# COc1ccc2c(NC3(C)CCOC3C)ncnc2c1OC (single isomer, unassigned) [5 Stereoisomer 4] with PDE1B (Homo sapiens): pIC50 is 7.82

Reported pIC50 (PDE1B (Homo sapiens)) for entry COc1ccc2c(N(C)C3CCOC3C)ncnc2c1OC (single isomer, unassigned) [22 Stereoisomer 2] is 7.46

Form field pIC50 for item COc1ccc2c(N[C@@H]3COC[C@H]3OC)ncnc2c1OC (relative stereo) [Compound 17] on PDE1B (Homo sapiens): 6.28

Fill in: PDE1B (Homo sapiens) pIC50 for COc1ccc2c(N(C)C3(C)CCOC3C)ncnc2c1OC (single isomer, unassigned) [20 Stereoisomer 2] = 8.40

Field pIC50 (PDE1B (Homo sapiens)), entry COc1ccc2c(NC3CCOC3C)ncnc2c1OC (single isomer, unassigned) [3 Stereoisomer 4] : 6.92

Result for COc1ccc2c(NC3CCOC3(C)C)ncnc2c1OC (single isomer, unassigned) [21 Stereoisomer 2] , tested on PDE1B (Homo sapiens), pIC50: 6.59

The value of pIC50 recorded for COc1ccc2c(N[C@@H]3COC[C@H]3O)ncnc2c1OC (relative stereo) [Compound 18] when tested on PDE1B (Homo sapiens) reads 5.89

# value of pIC50, PDE1B (Homo sapiens), item COc1ccc2c(N(C)C3(C)CCOC3C)ncnc2c1OC (single isomer, unassigned) [20 Stereoisomer 3] = 6.72

Per the reported PDE1B (Homo sapiens) data, COc1ccc2c(NC3CCOC3)ncnc2c1OC (single isomer, unassigned) [1 Stereoisomer 2] has pIC50 of 6.22

The compound COc1ccc2c(N(Cc3ccccc3)[C@@H]3CCOC3)ncnc2c1OC [Compound 16] on PDE1B (Homo sapiens): pIC50 was 6.39

Value sought: pIC50, system PDE1B (Homo sapiens), item COc1ccc2c(NC3CCOC3C)ncnc2c1OC (single isomer, unassigned) [3 Stereoisomer 3] . Result: 7.00

PDE1B (Homo sapiens) pIC50 of COc1ccc2c(N(C)C3(C)CCOC3)ncnc2c1OC (single isomer, unassigned) [23 Stereoisomer 2] is 7.26

COc1ccc2c(NC3(C)CCOC3C)ncnc2c1OC (single isomer, unassigned) [5 Stereoisomer 1] on PDE1B (Homo sapiens) gives pIC50 = 6.52

Measured on PDE1B (Homo sapiens), COc1ccc2c(N(C)C3(C)CCOC3C)ncnc2c1OC (single isomer, unassigned) [20 Stereoisomer 4] has a documented pIC50 of 7.41

Tested on PDE1B (Homo sapiens), the item COc1ccc2c(N(C)C3(C)CCOC3)ncnc2c1OC (single isomer, unassigned) [23 Stereoisomer 1] showed pIC50 equal to 7.15

###

Give pIC50 for every item shown.
By convention, pIC50 is the negative base-10 log of a molar concentration.

Response field pIC50 (PDE1C (Homo sapiens, UniProt Q14123)) for item COc1ccc2c(NC3CCOC3(C)C)ncnc2c1OC (single isomer, unassigned) [21 Stereoisomer 1] : 5.55

Record COc1ccc2c(NC3(C)CCOC3C)ncnc2c1OC (single isomer, unassigned) [5 Stereoisomer 3] has PDE1C (Homo sapiens, UniProt Q14123) pIC50 equal to 7.17

Field pIC50 (PDE1C (Homo sapiens, UniProt Q14123)), entry COc1ccc2c(NC3CCOC3C)ncnc2c1OC (single isomer, unassigned) [3 Stereoisomer 4] : 6.57

Noted pIC50 for COc1ccc2c(N(C)C3(C)CCOC3)ncnc2c1OC (single isomer, unassigned) [23 Stereoisomer 1] , tested on PDE1C (Homo sapiens, UniProt Q14123): 6.30

###

# tested.on: UniProt:Q14123
# note: exactly 200 nM is not below, so it is 0.0; use 1.0 for IC50 strictly under it

I'd appreciate it if you could check whether COc1ccc2c(N(C)C3(C)CCOC3C)ncnc2c1OC (single isomer, unassigned) [20 Stereoisomer 1] has IC50 smaller than 200 nM.
1.0

Just wondering, is IC50 of COc1ccc2c(N(C)C3CCOC3)ncnc2c1OC (centres unmarked) [Compound 4] below 200 nM?
1.0

Is IC50 strictly under 200 nM for the entry COc1ccc2c(NC3(C)CCOC3C)ncnc2c1OC (single isomer, unassigned) [5 Stereoisomer 2] ?
0.0

IC50 strictly < 200 nM for this molecule? COc1ccc2c(NC3CCOC3C)ncnc2c1OC (single isomer, unassigned) [3 Stereoisomer 3]
0.0

API: query returns whether the molecule falls strictly under 200 nM in IC50. Query: COc1ccc2c(NC3CCOC3C)ncnc2c1OC (single isomer, unassigned) [3 Stereoisomer 1]
0.0

Hello, is IC50 of the following molecule strictly smaller than 200 nM? COc1ccc2c(N(C)C3(C)CCOC3)ncnc2c1OC (single isomer, unassigned) [23 Stereoisomer 2]
1.0

A record lists COc1ccc2c(NC3CCOC3)ncnc2c1OC (single isomer, unassigned) [1 Stereoisomer 1] . Is its IC50 below 200 nM?
0.0

Hi there! Is IC50 for COc1ccc2c(NC3CCOC3(C)C)ncnc2c1OC (single isomer, unassigned) [21 Stereoisomer 2] below 200 nM, do you know?
0.0

###

Give pIC50 for every item shown.
Would you please state pIC50, meaning minus log10 of the concentration in mol/L, as a bare number?

Known value: PDE1B (Homo sapiens, UniProt Q01064) pIC50 of the compound COc1ccc2c(NC3(C)CCOC3)ncnc2c1OC (single isomer, unassigned) [6 Stereoisomer 2] equals 7.43

Summary line: COc1ccc2c(N(Cc3ccccc3)[C@H]3CCOC3)ncnc2c1OC [Compound 10] , PDE1B (Homo sapiens, UniProt Q01064), reported pIC50 = 6.44

Entry COc1ccc2c(N(C)[C@H]3CCOC3)ncnc2c1OC (single isomer, unassigned) [4 Stereoisomer 2] under PDE1B (Homo sapiens, UniProt Q01064) had pIC50 of 7.10

CCCN(c1ncnc2c(OC)c(OC)ccc12)[C@@H]1CCOC1 [Compound 14] on PDE1B (Homo sapiens, UniProt Q01064) gives pIC50 = 6.74

###

# tested.on: PDE1A (Homo sapiens)
# Sequence (P54750 whole entry): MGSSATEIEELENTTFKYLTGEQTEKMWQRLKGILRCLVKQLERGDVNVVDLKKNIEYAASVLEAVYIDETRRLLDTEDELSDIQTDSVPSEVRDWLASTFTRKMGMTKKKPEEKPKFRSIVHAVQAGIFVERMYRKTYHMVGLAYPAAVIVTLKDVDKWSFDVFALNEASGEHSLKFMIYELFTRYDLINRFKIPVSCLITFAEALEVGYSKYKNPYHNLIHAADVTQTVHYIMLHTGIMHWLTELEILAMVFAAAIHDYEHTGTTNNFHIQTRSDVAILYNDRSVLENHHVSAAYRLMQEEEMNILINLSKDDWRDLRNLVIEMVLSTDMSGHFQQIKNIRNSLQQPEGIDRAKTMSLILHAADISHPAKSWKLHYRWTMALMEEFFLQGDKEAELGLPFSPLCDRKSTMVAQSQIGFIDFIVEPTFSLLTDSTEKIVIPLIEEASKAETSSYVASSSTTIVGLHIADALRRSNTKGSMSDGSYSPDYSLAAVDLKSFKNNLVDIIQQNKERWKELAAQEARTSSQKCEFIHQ
measurement.name: pIC50
Scale note: pIC50 = -log10(concentration in M).

The recorded pIC50 for entry COc1ccc2c(N(C)C3(C)CCOC3C)ncnc2c1OC (single isomer, unassigned) [20 Stereoisomer 4] equals 6.92

Please fill in: pIC50 reported for COc1ccc2c(NC3(C)CCOC3C)ncnc2c1OC (single isomer, unassigned) [5 Stereoisomer 1] = 6.23

Form: compound = COc1ccc2c(NC3CCOC3C)ncnc2c1OC (single isomer, unassigned) [3 Stereoisomer 4] ; pIC50 = 6.24

// recorded pIC50 for COc1ccc2c(N(C)[C@H]3CCOC3)ncnc2c1OC (single isomer, unassigned) [4 Stereoisomer 2] : 5.85

Query COc1ccc2c(N(C)C3(C)CCOC3)ncnc2c1OC (single isomer, unassigned) [23 Stereoisomer 2] yields pIC50 of 6.80

Item: COc1ccc2c(N[C@@H]3COC[C@@H]3O)ncnc2c1OC (relative stereo) | pIC50: 5.34

The compound COc1ccc2c(NC3CCOC3(C)C)ncnc2c1OC (single isomer, unassigned) [21 Stereoisomer 2] showed pIC50 equal to 5.89

Note to self: pIC50 recorded for COc1ccc2c(N(C)[C@@H]3CCOC3)ncnc2c1OC (single isomer, unassigned) [4 Stereoisomer 1] was 6.43

Given item COc1ccc2c(NC3(C)CCOC3C)ncnc2c1OC (single isomer, unassigned) [5 Stereoisomer 2] , the value recorded as its pIC50 is 6.62

Form: compound = `COc1ccc2c(N(Cc3ccccc3)[C@@H]3CCOC3)ncnc2c1OC` ; pIC50 = 5.92

So, COc1ccc2c(N(C)C3(C)CCOC3C)ncnc2c1OC (single isomer, unassigned) [20 Stereoisomer 1] ? Its pIC50 was 7.72

The compound listed as COc1ccc2c(N(C)C3CCOC3C)ncnc2c1OC (single isomer, unassigned) [22 Stereoisomer 4] has a reported pIC50 of 5.82

Reported pIC50 of COc1ccc2c(N(C)C3(C)CCOC3)ncnc2c1OC (single isomer, unassigned) [23 Stereoisomer 1] : 6.62

The value of pIC50 measured for the compound `CCCN(c1ncnc2c(OC)c(OC)ccc12)[C@H]1CCOC1` turned out to be 6.55

Sample COc1ccc2c(NC3CCOC3C)ncnc2c1OC (single isomer, unassigned) [3 Stereoisomer 1] ; pIC50 observed: 5.60

Per the records, this compound ( COc1ccc2c(N(C)C3CCOC3C)ncnc2c1OC (single isomer, unassigned) [22 Stereoisomer 2] ) has pIC50 equal to 6.68

Given item COc1ccc2c(NC3CCOC3(C)C)ncnc2c1OC (single isomer, unassigned) [21 Stereoisomer 1] , the value recorded as its pIC50 is 5.82

Recorded result, COc1ccc2c(NC3CCOC3)ncnc2c1OC (single isomer, unassigned) [1 Stereoisomer 1] , pIC50: 6.55

Consider COc1ccc2c(NC3CCOC3)ncnc2c1OC (single isomer, unassigned) [1 Stereoisomer 2] . Its measured pIC50 is 5.72

Reported pIC50 of COc1ccc2c(NC3(C)CCOC3)ncnc2c1OC (single isomer, unassigned) [6 Stereoisomer 1] : 6.54

// COc1ccc2c(N(C)C3(C)CCOC3C)ncnc2c1OC (single isomer, unassigned) [20 Stereoisomer 3] : pIC50 value = 6.36

What the record says about COc1ccc2c(N(C)C3CCOC3C)ncnc2c1OC (single isomer, unassigned) [22 Stereoisomer 3] : pIC50 is 5.96

Input COc1ccc2c(NC3CCOC3C)ncnc2c1OC (single isomer, unassigned) [3 Stereoisomer 3] . Output pIC50: 6.05

Sample `CCN(c1ncnc2c(OC)c(OC)ccc12)[C@@H]1CCOC1` ; pIC50 observed: 5.92

// pIC50 value for COc1ccc2c(NC3(C)CCOC3C)ncnc2c1OC (single isomer, unassigned) [5 Stereoisomer 4] : 7.11

Reported pIC50 of `COc1ccc2c(N(Cc3ccccc3)[C@H]3CCOC3)ncnc2c1OC` : 6.09

compound COc1ccc2c(NC3(C)CCOC3)ncnc2c1OC (single isomer, unassigned) [6 Stereoisomer 2] , pIC50 observed: 6.85

Memo: COc1ccc2c(N(C)C3CCOC3C)ncnc2c1OC (single isomer, unassigned) [22 Stereoisomer 1] , reported pIC50: 6.96

pIC50 reading for COc1ccc2c(N(C)C3(C)CCOC3C)ncnc2c1OC (single isomer, unassigned) [20 Stereoisomer 2] : 7.59

Entry under test: COc1ccc2c(NC3CCOC3C)ncnc2c1OC (single isomer, unassigned) [3 Stereoisomer 2] . Its pIC50 was 6.31

Lab note: COc1ccc2c(NC3(C)CCOC3C)ncnc2c1OC (single isomer, unassigned) [5 Stereoisomer 3] gave pIC50 of 7.48
